Origin of values: patent US9512107B2

target-or-system: IDH2 R172K (Homo sapiens, UniProt P48735, R172K)
measurement-protocol: IDH2 R172K enzymatic assay (NADPH cofactor depletion, diaphorase/resazurin readout)
study-conditions: read-out: Enz R172K

compound	IC50
CC(C)(C)CNc1nc(Nc2ccncc2)nc(-c2ccccc2)n1	100 to 1000 nM
CC(C)Nc1nc(Nc2ccnc(C(F)F)c2)nc(-c2cccc(C(F)F)n2)n1	< 100 nM
CC(C)Nc1nc(Nc2ccc(C#N)cc2)nc(-c2ccccc2)n1	100 to 1000 nM
FC(F)(F)c1cc(Nc2nc(NC3CC4CCC3O4)nc(-c3cccc(C(F)(F)F)n3)n2)ccn1 (stereo not drawn)	< 100 nM
CCOCCNc1nc(Nc2ccncc2)nc(-c2ccccc2)n1	1000 to 10000 nM
CC(C)C(=O)Nc1nc(Nc2ccccc2)nc(-c2ccccc2)n1	100 to 1000 nM
CC(C)Nc1nc(Nc2ccccc2)nc(-c2cc(C(F)(F)F)ccn2)n1	100 to 1000 nM
CC(C)Nc1nc(Nc2cccc(F)c2)nc(-c2c(F)cccc2F)n1	< 100 nM
CC(C)(C)Nc1nc(Nc2cc(F)cc(F)c2)nc(-c2cccc(C(F)(F)F)n2)n1	< 100 nM

###

System: U87MG pLVX-IDH2 R140Q-neo cells
measurement-protocol: U87MG pLVX-IDH2 R140Q-neo cell based assay, 2-HG in media by LC-MS at 48 hours
study-conditions: Homo sapiens, U-87 MG
pIC50: −log10 of the molar value.
Each item that follows carries a reported pIC50.
readout-type: pIC50

molecule	target-or-system	result
CC(C)Nc1nc(Nc2cccc(S(C)(=O)=O)c2)nc(-c2cc(F)cc(C(F)(F)F)c2)n1 [Compound 660]	U87MG pLVX-IDH2 R140Q-neo cells	5.00 to 6.00
CC(C)(O)CNc1nc(Nc2cncc(C(F)(F)F)c2)nc(-c2ccccc2F)n1 [Compound 392]	U87MG pLVX-IDH2 R140Q-neo cells	> 7.00
Cc1cc(Nc2nc(NC(C)C)nc(-c3ccccc3)n2)ccn1 [Compound 288]	U87MG pLVX-IDH2 R140Q-neo cells	> 7.00
CCNc1cc(Nc2nc(NC(C)C)nc(-c3ccccc3)n2)ccn1 [Compound 224]	U87MG pLVX-IDH2 R140Q-neo cells	6.00 to 7.00

###

Tested on: U87MG pLVX-IDH2 R140Q-neo cells
measurement-protocol: U87MG pLVX-IDH2 R140Q-neo cell based assay, 2-HG in media by LC-MS at 48 hours
study-conditions: Homo sapiens, U-87 MG
In this section, each of the compounds is paired with its reported IC50.
readout-type: IC50

compound	readout-type	result
CC(C)Nc1nc(Nc2ccnc(C(F)F)c2)nc(-c2cccc(C(F)(F)F)n2)n1	IC50	< 100 nM
Fc1ccc(Nc2nc(NC3[C@H]4COC[C@@H]34)nc(-c3ccccc3F)n2)cn1 (stereo partly shown)	IC50	< 100 nM
Cn1nccc1Nc1nc(Nc2ccnc(C(F)(F)F)c2)nc(-c2cccc(C(F)(F)F)n2)n1	IC50	< 100 nM
O=C(Nc1nc(Nc2ccccc2)nc(-c2ccccc2)n1)c1ccc[nH]1	IC50	100 to 1000 nM

###

target-or-system: IDH2 R172K (Homo sapiens, UniProt P48735, R172K)
Sequence (P48735 40-452 R172K): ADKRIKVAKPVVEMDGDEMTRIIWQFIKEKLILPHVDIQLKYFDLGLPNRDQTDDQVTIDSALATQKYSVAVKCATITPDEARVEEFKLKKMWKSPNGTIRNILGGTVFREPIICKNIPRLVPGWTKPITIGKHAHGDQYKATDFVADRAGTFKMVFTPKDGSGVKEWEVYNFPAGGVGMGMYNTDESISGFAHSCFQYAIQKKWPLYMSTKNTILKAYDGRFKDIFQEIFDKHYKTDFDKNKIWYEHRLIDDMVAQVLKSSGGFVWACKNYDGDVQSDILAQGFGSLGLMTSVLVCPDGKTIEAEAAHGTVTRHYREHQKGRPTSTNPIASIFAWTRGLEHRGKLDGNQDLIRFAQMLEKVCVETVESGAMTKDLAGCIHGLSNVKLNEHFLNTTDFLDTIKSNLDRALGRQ
measurement-protocol: IDH2 R172K enzymatic assay (NADPH cofactor depletion, diaphorase/resazurin readout)
study-conditions: read-out: Enz R172K
pIC50: −log10 of the molar value.
Reported pIC50 values follow for various compounds

compound	target-or-system	pIC50
CC1CC1Nc1nc(Nc2ccnc(C(F)(F)F)c2)nc(-c2cccc(C(F)(F)F)n2)n1 (stereo not drawn)	IDH2 R172K (Homo sapiens, UniProt P48735, R172K)	> 7.00
c1ccc(Nc2nc(NC3CCOC3)nc(-c3ccccc3)n2)cc1 (stereo not drawn)	IDH2 R172K (Homo sapiens, UniProt P48735, R172K)	6.00 to 7.00
CC(C)Nc1nc(Nc2cc(F)cc(F)c2)nc(-c2cc(O)cc(O)c2)n1	IDH2 R172K (Homo sapiens, UniProt P48735, R172K)	> 7.00
OC1CC1Nc1nc(Nc2ccnc(C(F)(F)F)c2)nc(-c2cccc(C(F)(F)F)n2)n1 (stereo not drawn) [Compound 569]	IDH2 R172K (Homo sapiens, UniProt P48735, R172K)	6.00 to 7.00
CC(C)Nc1nc(Nc2ccncc2)nc(-c2ccccc2F)n1	IDH2 R172K (Homo sapiens, UniProt P48735, R172K)	6.00 to 7.00
CCS(=O)(=O)c1cccc(Nc2nc(NC(C)C)nc(-c3ccccc3)n2)c1	IDH2 R172K (Homo sapiens, UniProt P48735, R172K)	6.00 to 7.00
CC(C)C(C)Nc1nc(Nc2ccncc2)nc(-c2ccccc2)n1 (stereo not drawn)	IDH2 R172K (Homo sapiens, UniProt P48735, R172K)	6.00 to 7.00
CC(C)Nc1nc(Nc2cc(Cl)cc(S(C)(=O)=O)c2)nc(-c2cccc(C(C)(F)F)n2)n1	IDH2 R172K (Homo sapiens, UniProt P48735, R172K)	> 7.00
FC(F)(F)CNc1nc(Nc2ccccc2)nc(-c2ccccc2)n1	IDH2 R172K (Homo sapiens, UniProt P48735, R172K)	6.00 to 7.00

###

target-or-system: IDH2 R172K (Homo sapiens, UniProt P48735, R172K)
measurement-protocol: IDH2 R172K enzymatic assay (NADPH cofactor depletion, diaphorase/resazurin readout)
study-conditions: read-out: Enz R172K
# reported IC50; entries follow
readout-type: IC50

compound	result
CC(CO)Nc1nc(Nc2ccnc(C(F)(F)F)c2)nc(-c2cccc(C(F)(F)F)n2)n1 (stereo not drawn) [Compound 527]	< 100 nM
COCCCNc1nc(Nc2ccnc(C(F)(F)F)c2)nc(-c2cccc(C(F)(F)F)n2)n1 [Compound 528]	100 to 1000 nM
CC(C)Nc1nc(Nc2cncc(C(F)(F)F)c2)nc(-c2cccc(C(F)(F)F)n2)n1 [Compound 386]	< 100 nM
Nc1ccnc(-c2nc(NCC(F)(F)F)nc(Nc3cc(F)cc(F)c3)n2)n1 [Compound 480]	100 to 1000 nM
CC(C)Nc1nc(Nc2cncnc2)nc(-c2ccccc2)n1 [Compound 266]	1000 to 10000 nM
CCCNc1nc(Nc2ccncc2)nc(-c2ccccc2)n1 [Compound 249]	100 to 1000 nM
CCOc1cc(Nc2nc(NC(C)C)nc(-c3ccccc3)n2)ccn1 [Compound 200]	100 to 1000 nM
CC(C)Nc1nc(Nc2ccncc2)nc(-c2ccccc2)n1 [Compound 129]	1000 to 10000 nM
CC(C)Nc1nc(Nc2ccnc(C3(C#N)CC3)c2)nc(-c2cccc(C(F)(F)F)n2)n1 [Compound 669]	< 100 nM

###

target-or-system: IDH2 R172K (Homo sapiens, UniProt P48735, R172K)
measurement-protocol: IDH2 R172K enzymatic assay (NADPH cofactor depletion, diaphorase/resazurin readout)
study-conditions: read-out: Enz R172K
pIC50: −log10 of the molar value.
Measured pIC50 accompanies every entry in the list below.
readout-type: pIC50

compound	readout-type	result
FC(F)(F)c1cc(Nc2nc(NC3C4COCC43)nc(-c3cccc(C(F)(F)F)n3)n2)ccn1 (centres unmarked)	pIC50	> 7.00
CC(C)Nc1nc(Nc2cc(F)cc(F)c2)nc(-c2cccc(C(F)(F)F)n2)n1	pIC50	> 7.00
CC(C)Nc1nc(Nc2ccnc(C(C)(F)F)c2)nc(-c2cccc(C(C)(F)F)n2)n1	pIC50	6.00 to 7.00
Cc1cc(-c2nc(Nc3cccc(F)c3)nc(NC(C)C)n2)no1	pIC50	6.00 to 7.00
O=C(Nc1nc(Nc2ccccc2)nc(-c2ccccc2)n1)OCC1CC1	pIC50	6.00 to 7.00
CCNS(=O)(=O)c1cccc(Nc2nc(NC(C)C)nc(-c3ccccc3)n2)c1	pIC50	5.00 to 6.00
CC(C)Nc1nc(Nc2ccnc(C(F)(F)F)c2)nc(-c2cccc(CN)c2)n1	pIC50	< 5.00
CC(C)CNc1nc(Nc2cccc(S(C)(=O)=O)c2)nc(-c2cccc(C(F)(F)F)n2)n1	pIC50	6.00 to 7.00
